target: Transcriptional enhancer factor TEF-1 (Homo sapiens, UniProt P28347)
Sequence (P28347 whole entry): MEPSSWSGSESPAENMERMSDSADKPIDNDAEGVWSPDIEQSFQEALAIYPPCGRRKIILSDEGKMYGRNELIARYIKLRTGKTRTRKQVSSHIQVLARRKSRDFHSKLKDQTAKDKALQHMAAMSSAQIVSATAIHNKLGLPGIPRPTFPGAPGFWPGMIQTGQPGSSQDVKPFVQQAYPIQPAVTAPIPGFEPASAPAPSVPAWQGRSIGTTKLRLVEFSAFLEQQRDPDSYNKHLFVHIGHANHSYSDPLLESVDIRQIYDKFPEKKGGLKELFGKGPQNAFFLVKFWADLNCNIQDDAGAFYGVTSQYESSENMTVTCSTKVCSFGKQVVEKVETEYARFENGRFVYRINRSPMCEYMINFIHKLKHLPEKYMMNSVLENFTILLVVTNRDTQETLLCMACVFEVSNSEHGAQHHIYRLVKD
measured.property: IC50 (µM)
Please respond with the number in µM and leave the unit unwritten.

May I ask what IC50 has been recorded for O=c1cc(CO)oc(C(Nc2ccccc2)c2ccccc2)c1O (stereo unspecified) ? 2.6

====

target: Transcriptional enhancer factor TEF-3 (Homo sapiens, UniProt Q15561); assay: Inhibition of CPM binding to N-terminal His6-tagged human TEAD4 (217 to 434 residues) expressed in Escherichia coli BL21-CodonPlus (DE3)-RIPL cells at 12.5 uM preincubated for 10 mins followed by CPM addition and measured after 1 hr by fluorescence assay relative to control; conditions: time 70.0 min
Sequence (Q15561 whole entry, the tested form may be a part): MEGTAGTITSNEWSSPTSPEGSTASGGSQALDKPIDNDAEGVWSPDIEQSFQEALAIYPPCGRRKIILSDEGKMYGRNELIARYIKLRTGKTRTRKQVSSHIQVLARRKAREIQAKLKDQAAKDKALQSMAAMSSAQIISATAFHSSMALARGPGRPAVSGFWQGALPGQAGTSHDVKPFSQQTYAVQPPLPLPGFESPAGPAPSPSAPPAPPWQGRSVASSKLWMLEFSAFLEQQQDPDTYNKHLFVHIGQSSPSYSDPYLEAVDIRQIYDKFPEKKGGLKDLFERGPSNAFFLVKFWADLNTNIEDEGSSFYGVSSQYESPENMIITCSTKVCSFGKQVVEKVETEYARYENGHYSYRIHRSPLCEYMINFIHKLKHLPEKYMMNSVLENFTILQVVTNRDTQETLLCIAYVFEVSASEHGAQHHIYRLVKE
measured.property: inhibition

May I ask what inhibition has been recorded for NC(=O)c1ccc(C(Nc2ccccc2)c2oc(CO)cc(=O)c2O)cc1 (configuration not stated) ? > 50%

May I ask what inhibition has been recorded for CSCC[C@H](NCc1oc(CO)cc(=O)c1O)C(=O)O ? < 50%

May I ask what inhibition has been recorded for O=c1cc(CO)oc(C(Nc2nc3ccccc3[nH]2)c2ccccc2)c1O (configuration not stated) ? > 50%

May I ask what inhibition has been recorded for COc1c(C(Nc2ccccc2)c2ccccc2)oc(CO)cc1=O (configuration not stated) ? < 50%

May I ask what inhibition has been recorded for CC(C)C(Nc1ccccc1)c1oc(CO)cc(=O)c1O (configuration not stated) ? > 50%

May I ask what inhibition has been recorded for O=c1cc(CO)oc(CNc2ccccc2)c1O ? > 50%

May I ask what inhibition has been recorded for O=c1cc(CO)oc(C(Nc2ccccn2)c2ccccc2F)c1O (configuration not stated) ? > 50%

May I ask what inhibition has been recorded for Cc1ccnc(NC(c2ccccc2)c2oc(CO)cc(=O)c2O)c1 (configuration not stated) ? > 50%

May I ask what inhibition has been recorded for Cc1ccc(C(Nc2ccccc2)c2oc(CO)cc(=O)c2O)cc1 (configuration not stated) ? > 50%

May I ask what inhibition has been recorded for O=c1cc(CO)oc(C(Nc2ccccn2)c2cccnc2)c1O (configuration not stated) ? > 50%

May I ask what inhibition has been recorded for O=c1cc(CO)oc(C(Nc2ccccc2)c2ccccc2F)c1O (configuration not stated) ? > 50%

May I ask what inhibition has been recorded for O=c1cc(CO)oc(C(Nc2ccccc2)c2ccccc2)c1O (configuration not stated) ? > 50%
